This listing pairs binders with measured pEC50.
system: T1, CD79b endogenously expressed on the cell surface (malignant B cell lines, normal B cells in PBMC, CLL … (human, UniProt P40259 29-229))
T1 construct: whole, on cells; On cells CD79b stands in the B-cell receptor complex with CD79a and surface Ig; also called cell surface CD79b; endogenous CD79b
T1 sequence (looked up): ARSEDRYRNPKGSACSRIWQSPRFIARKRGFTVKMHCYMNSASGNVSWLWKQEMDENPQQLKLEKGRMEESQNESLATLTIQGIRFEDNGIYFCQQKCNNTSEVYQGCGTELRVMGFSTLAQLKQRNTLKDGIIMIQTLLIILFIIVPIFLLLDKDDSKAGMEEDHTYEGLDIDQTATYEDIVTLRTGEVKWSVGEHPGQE
protocol_summary: flow cytometry on SU-DHL-4 cells; anti-human IgG1-PE; MFI (PE); table under the graph
pEC50: −log10 of the molar value.

binder: ch44G2 (antibody, human IgG1, kappa, V domains shown, Rabbit/human chimeric IgG1 kappa; also called chimeric 44G2) VH: QSVRETGGGLVQPGGSLKLSCKASGFTINIDYWISWVRQAPGKGLEWIGIIDPGDGTTYFAIWVSGRFTISFDNTQNTVDLQMNSLTAADTATYFCVREFSASAYQYDLWGPGTLVTVSS VL: DLVMTQTPSSVSAAVGGTVSINCRASEDIENYLAWYQQKPGQPPKLLIYRASTLSSGVSSRFSGSGSGTEFTLTISGVQPDDAATYYCQQGYRNSNVDNPFGGGTEMVVKR
pEC50: 9.14
--
binder: ch48H10 (antibody, human IgG1, kappa, V domains shown, Rabbit/human chimeric IgG1 kappa; also called chimeric 48H10) VH: QSVKETGGGLVQPGGSLTLSCKASGFTINIDYWISWVRQAPGKGLEWIGIIDPGDGTTYFAIWVSGRFTISTDNAQNTVDLQMNSLTAADTATYFCAREFSASAYQYDLWGPGTLVTVSS VL: ALVMTQTPSSVSAAVGGTVSINCQASEDIESYLTWYQQKPGQPPKLLMYRASTLSSGVSSRFSASGSGTEFTLTISGVQPDDAATYYCQQGYRNKDVDNPFGGGTEVVVKR
pEC50: 9.01
--
binder: polatuzumab (antibody, V domains shown) VH: EVQLVESGGGLVQPGGSLRLSCAASGYTFSSYWIEWVRQAPGKGLEWIGEILPGGGDTNYNEIFKGRATFSADTSKNTAYLQMNSLRAEDTAVYYCTRRVPIRLDYWGQGTLVTVSS VL: DIQLTQSPSSLSASVGDRVTITCKASQSVDYEGDSFLNWYQQKPGKAPKLLIYAASNLESGVPSRFSGSGSGTDFTLTISSLQPEDFATYYCQQSNEDPLTFGQGTKVEIKR
pEC50: 8.84
--
binder: ch57B9 (antibody, human IgG1, kappa, V domains shown, Rabbit/human chimeric IgG1 kappa; also called chimeric 57B9) VH: QSVRETGGGLVQPGGSLTLSCEASEFTINIDYWISWVRQAPGKGLEWIGIIDPGDGTTYFAIWVSGRFTITRNTNLNTVDLKMTSLTEADTATYFCAREVSASAYQYDLWGPGTLVTVSS VL: ALVMTQTPSSVSADVGGTVSINCQASEDIESYLAWYQQKPGQPPKLLIYFTSNLASGVPSRFKGSGSGTEYTLTISGVQPDDAATYYCQQGYRNSDVHNPFGGGTEVVVKR
pEC50: 9.05
--
binder: ch22D10 (antibody, human IgG1, kappa, V domains shown, Rabbit/human chimeric IgG1 kappa; also called chimeric 22D10) VH: QSVEESGGRLVTPGTPLTLTCTASGFTINDYHMNWVRQAPGKGLEWIGIISSNGDTYYASWAKGRFTISRTSTTVDLKMTSLTTEDTATYFCARDDRDRSYAFDPWGPGTLVTVSS VL: ALVMTQTPSSVSAAVGGTVTINCRASEDIERYLAWYQQKPGQRPKLLIYGASTLASGVPSRFKGSGSGTEYTLTISGVQPDDAATYYCHQGDSSRNVVNVFGGGTEVVVKR
pEC50: 9.40
--
binder: ch23D8 (antibody, human IgG1, kappa, V domains shown, Rabbit/human chimeric IgG1 kappa; also called chimeric 23D8) VH: QSLEESGGGLVTPGGTLTLTCTVSGLSLSSNAINWVRQAPGKGLEWIGMIYSGGRIEYASWAKGRFTISKTSTTVDLKITSPTTEDTATYFCAKGMSPSAHSSDIWGPGTLVTVSA VL: AYDMTQTPASVEVAVGGTVTIKCQASQSISDNLSWYQQKPGQPPKLLIYDASDLASGVPSRFSGSGSGTEFTLTISDLEPADAATYYCQQDWISSNVDNTFGGGTEVVVKR
pEC50: 9.03
